Assay Notes: Oral bioavailability in cynomolgus monkey at 5 mg/kg
Format: ADME, organism-based, Macaca fascicularis
Experimental Parameters: in vivo
Measured Quantity: bioavailability (%)
Kindly provide the numeric value in % only, without the unit symbol.

Asked: Report bioavailability, nothing else, for this molecule: "Cc1ccc(S(=O)(=O)N2CCNC(=O)[C@H]2CC(=O)N[C@@H]2CCCc3cc(CN4CCCCC4)ccc32)cc1"
Given back: 17

* * *

Assay Notes: Volume of distribution at steady state in cynomolgus monkey at 1 mg/kg, iv
Assay type: ADME, organism-based, Macaca fascicularis
Set-up: dose 1 mg/kg, route intravenous
Experimental Parameters: in vivo, read-out: Vdss
Measured Quantity: Vd (L/kg)
Kindly provide the numeric value in L/kg only, without the unit symbol.

Asked: Report Vd, nothing else, for this compound: "Cc1ccc(S(=O)(=O)N2CCNC(=O)[C@H]2CC(=O)N[C@@H]2CCCc3cc(CN4CCCCC4)ccc32)cc1"
Given back: 1.6

Where these numbers come from: ChEMBL document CHEMBL1777801
